test system: ventricular extrasystoles; assay: Anti-arhythmic action in the rat (aconitine-induced ventricular extrasystoles); assay type: in vivo; settings: po, 1 h, read-out: Percentage of protection (percentage increase in the aconitine dose necessary to initiate the ventricular extrasystoles)
Observable: change in vivo at 25 mg/kg (%)
Respond with the bare value in %.

Consider the worked cases shown below.
CC(C)(C)NCCCOc1ccccc1C(=O)c1cccc2[nH]ccc12.O=C(O)c1ccccc1 [Example 3]; 52
CC(C)(C)NCC(O)COc1ccccc1C(O)c1cccc2[nH]ccc12 (single isomer, unassigned; isomer b) [Example 9]; 91
Cn1ccc2c(Cc3ccccc3OCC(O)CNC(C)(C)C)cccc21 (racemic) [Example 11]; 81
CC(C)(C)NCC(O)COc1ccccc1C(=O)c1cccc2[nH]ccc12 (stereo not shown) [Example 4]; 73
Cn1ccc2c(C(=O)c3ccccc3OCC(O)CNC(C)(C)C)cccc21 (racemic) [Example 10]; 124
CC(C)(C)NCC(O)COc1ccc(C(=O)c2cccc3[nH]ccc23)cc1 (stereo not shown) [Example 2]; 82

The record that follows has no change in vivo at 25 mg/kg shown yet.
Measured change in vivo at 25 mg/kg of C=C(c1ccccc1OCC(O)CNC(C)(C)C)c1cccc2[nH]ccc12 (racemic) [Example 22] : 33
